assayed_system: Nek2 (Homo sapiens, UniProt P51955)
Sequence (P51955 1-445): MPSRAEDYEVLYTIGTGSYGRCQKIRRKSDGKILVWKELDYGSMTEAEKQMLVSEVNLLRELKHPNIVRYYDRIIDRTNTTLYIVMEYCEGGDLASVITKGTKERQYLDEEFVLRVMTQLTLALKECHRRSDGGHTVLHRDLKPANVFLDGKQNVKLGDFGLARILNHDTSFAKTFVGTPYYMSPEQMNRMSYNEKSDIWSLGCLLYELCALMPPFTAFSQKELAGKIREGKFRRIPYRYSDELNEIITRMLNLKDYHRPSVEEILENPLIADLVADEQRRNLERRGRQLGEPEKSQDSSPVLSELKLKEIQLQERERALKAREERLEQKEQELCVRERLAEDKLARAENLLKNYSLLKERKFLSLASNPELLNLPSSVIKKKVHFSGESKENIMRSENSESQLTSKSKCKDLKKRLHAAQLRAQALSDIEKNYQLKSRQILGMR
readout: IC50

>  <smi>
CC#CC(=O)Nc1ccc2c(c1)/C(=C/c1[nH]c(CC)nc1C)C(=O)N2

>  <measured_value>
~20 µM

$$$$
